Cited source: PubChem BioAssay (NCI)

Test: NCI Yeast Anticancer Drug Screen. Data for the mlh1 rad18 strain (AID 175)
Settings: S. cerevisiae mlh1 rad18 strain growth inhibition; at 50.0 µM (retest, dose inferred, filed as 5.0); stronger effect = higher value
The panel holds about 79,000 compounds, 15% with a hit somewhere; the sample as a whole holds those more often.

molecule	growth inhibition (%)
O=C1C(Cl)=C(Nc2ccc(S(=O)(=O)O)cc2)C(=O)c2ccccc21	99
O=C(Nc1ccc(/C=C/c2ccc(NC(=O)c3cc(S(=O)(=O)O)c4cccnc4c3O)cc2S(=O)(=O)O)c(S(=O)(=O)O)c1)c1cc(S(=O)(=O)O)c2cccnc2c1O	97
O=C1/C(=C/c2ccccc2[N+](=O)[O-])COc2ccccc21	98
COc1ccc(C2c3cn[nH]c3CC3CCCCC32)cc1 (configuration not stated)	98
COC(=O)C(=Cc1c[nH]c2ccccc12)C(=O)OC	-17
CCOC(=O)c1c(N)c(=O)n2c3c(cccc13)CC2	98
Oc1ccc2c(ccc3ccccc32)c1	99
COc1ccc(C(c2cc3c(cc2O)OCO3)N2CCOCC2)c(OC)c1OC (configuration not stated)	63
O=[N+]([O-])c1ccc(NS(=O)(=O)c2ccccc2)c(NS(=O)(=O)c2ccccc2)c1	90
Oc1c(Cl)cc(Cl)c(Cc2c(Cl)cc(Cl)c(O)c2Cl)c1Cl	96
CC1=CC(O)(c2nc3ccccc3s2)CC(C)(C)C1 (configuration not stated)	69
O=c1nc(NC(c2ccccc2)(c2ccccc2)c2ccccc2)ccn1CCNCCn1ccc(NC(c2ccccc2)(c2ccccc2)c2ccccc2)nc1=O	97
CC=CCOc1cc(NC(=S)OC(C)C)ccc1Cl (mixture of isomers)	96
c1cc[c]([Sn]([S]c2ccccn2)([c]2ccccc2)[c]2ccccc2)cc1	99
C=CCSc1nc2ccc(N3C(=O)C=CC3=O)cc2s1	97
O=C(c1ccc(O)cc1)c1ccccc1O	23
Fc1ccc(OCCC(Cn2ccnc2)c2ccc(Cl)cc2Cl)cc1 (configuration not stated)	99
Cc1ccc2c(c1)SSc1ccc(C)cc1SS2	93
O=C1CCCC1C(=O)OC1CCCC1 (configuration not stated)	0
O=C(O)CCC/C(=N\Nc1ccccc1)C(=O)O	98
CC1(C)CCCC12C=NCC2 (configuration not stated)	27
CS(=O)(=O)C(c1nc2nnc(NC(=O)Nc3ccc(Cl)cc3)n2[nH]c1=O)c1nc2nnc(NC(=O)Nc3ccc(Cl)cc3)n2[nH]c1=O	32
CC1=C(CO)C(=O)O[C@@H]([C@@H](C)[C@H]2CC[C@H]3[C@@H]4C[C@@H](O)C5=CC=CC(=O)[C@]5(C)[C@H]4CC[C@]23C)C1	36
CN(C)C(=S)NC(=S)Nc1ccc2ccccc2c1	92
O=C(Nc1c(Cl)cccc1Cl)OCc1ccc2c(c1)OCO2	42
CC(C)c1ccc(C2C3=C(N=C4SCC(=O)N42)C(=O)c2ccccc23)cc1 (configuration not stated)	2
ClC1CC[N-]CC1.ClC1CC[N-]CC1.[Cl][Pt+2]([Cl])([Cl])[Cl]	96
Cc1ccc(O)c(-c2cscn2)c1	59
COc1ccc(C2CC(c3c(O)ccc4ccccc34)=NN2)cc1OC (configuration not stated)	97
O=C(C[n+]1ccccc1Cl)c1ccc(F)cc1	99
CC(=O)C(C(=O)CCSCCO)C(SCCO)c1ccc(Cl)c(Cl)c1 (configuration not stated)	73
O=C1C=CC(=O)C2C3C=CC(CC3)C12 (configuration not stated)	39

----------
Assay: NCI Yeast Anticancer Drug Screen. Data for the rad50 strain (AID 155);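 further: 0% = growth of vehicle-only cultures of the same strain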
Details: S. cerevisiae rad50 strain growth inhibition; at 50.0 µM
About 79,000 compounds went through this panel and 15% of them were active in at least one assay; those are over-represented in the sample as a whole. The source made the active and inactive calls. Cut-off read from the data, not from the text of the source: active = growth inhibition above about 70%; inactive = the rest.
Classes used: active, inactive

molecule	discrete-label
COc1ccc(C2c3cc4c(cc3OC(N3CCOCC3)C2C)OCO4)c(OC)c1 (stereo unspecified)	active
N#CC(C(=O)CCc1nc2ccccc2[nH]1)c1c(Cl)cccc1Cl (stereo unspecified)	inactive
O=C1/C(=C\c2ccccc2)C(NC2CCCCC2)c2ccccc21 (stereo unspecified)	active
CC(C)CCC(C)(C)c1cc(O)ccc1O	active
N=C(N)SCc1nc(-c2ccc(Cl)cc2)no1	active
O=[N+]([O-])CC(O)c1ccccc1Cl (stereo unspecified)	active
O=C1OC(c2ccccc2)(c2ccc(-c3ccccc3O)cc2)c2ccccc21 (stereo unspecified)	active
CCOCCOC(=O)C(C)O (stereo unspecified)	inactive
Cc1cc(O)c(C=NC(=S)C(N)=S)c(=O)o1	inactive
ONC1=Nc2ccccc2OCc2cc(Br)c(Br)cc2COc2ccccc2N=C1NO	active
COc1ccc(C2Oc3ccc(Cl)cc3C=C2[N+](=O)[O-])cc1OC (stereo unspecified)	active
COc1cc(C2c3cc4c(cc3C(OC3CCCCO3)C3COC(=O)C23)OCO4)cc(OC)c1OC (stereo unspecified)	inactive
CN(Nc1ccc(Cl)cc1)c1ccc(Cl)cc1	active
Oc1c(Cl)cc(Cl)cc1C=Nc1cc(C(F)(F)F)ccc1Cl	active
O=C1/C(=C/c2ccc(Cl)c(Cl)c2)CN(C(=O)CCN2CCOCC2)C/C1=C\c1ccc(Cl)c(Cl)c1	inactive
CCCCCCCCC[n+]1cccc(C(=O)c2ccccc2)c1	inactive
Cn1c(=S)c2[nH]c(=S)[nH]c2n(C)c1=O	active
CCc1nc(N)nc(N)c1-c1ccc(N2CCCCC2)c([N+](=O)[O-])c1	inactive
CCSC(=S)NC(=O)c1ccccc1	inactive
Nc1ccc2nnnn2c1	inactive
COc1ccccc1C(=O)c1c(C(=O)O)ccc2ccccc12	inactive
C=CS(=O)(=O)c1ccc2ccccc2c1	active
O=C1c2cc(F)ccc2-c2c(F)cc(F)c(F)c21	active
O=C(O)C(Cc1ccccc1)N=Cc1ccc(O)cc1 (stereo unspecified)	inactive
CN(C)c1cc(N(C)C)c2cc(-c3ccccc3)sc2n1	active
O=c1[nH]c(CN2CCCCC2)nn1-c1ccccc1	inactive
COC(=O)c1cccc2c3ccccc3c3ccccc3c12	active
O=C1C(=O)c2ccccc2C=C1C1CCCCC1	active
COc1ccc(C(=O)CCc2c[nH]c3ccccc23)c(O)c1	inactive
CCCCCCC1CC(=O)C1(Cl)Cl (stereo unspecified)	active
N#Cc1ccc2nc3ccc(N)cc3nc2c1	active
CCCCCCCCCCCCCCOCCS(=O)(=O)O	active
COc1ccc(/C=C2\NC(=O)NC2=O)cc1	inactive
COC1=Nc2ccccc2S(=O)(=O)C=C1	active
C#CC[N+](CC)(CC)CCNC(=O)CCCCCCCCCCCCCCC	active
CCN(CC)CCCC(C)Nc1c2ccccc2nc2c(C)cc(Br)cc12 (stereo unspecified)	inactive
CCn1c2ccccc2c2ccc(N=Nc3ccc(N(C)C)cc3)cc21	active
Fc1cccc2c1cc1ccc3cccc4ccc2c1c34	active
CC(=O)N=C1N(/C=C2\C(=O)Oc3ccccc3C2=O)C(=O)/C(=C/c2ccc(Cl)cc2Cl)N1C	active
CN(C)CC(O)c1cc(-c2ccc(Cl)c(Cl)c2)nc2c(Cl)cc(Cl)cc12 (stereo unspecified)	active
CCCCCCC/C=C/C(=O)OC1C(OC2C(OC(CCCCCCC)CC(=O)OC(CCCCCCC)CC(=O)O)OC(C)C(O)C2O)OC(C)C(O)C1O (stereo unspecified)	active

----------
Assay: NCI Yeast Anticancer Drug Screen. Data for the sgs1 mgt1 strain (AID 161);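 further: 0% = growth of cultures given vehicle only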
Conditions: S. cerevisiae sgs1 mgt1 strain, at 50.0 µM, stronger effect = higher value
This is part of a sample that, as a whole, favours compounds with a hit. Of some 79,000 tested, about 15% had one in any assay.
Label rule, in plain words: growth inhibition of 90% and up is 1, under 90% is -1.

compound	discrete-label
C[C@]12CC[C@@H]3c4cc(OCC(F)(F)F)c(O)cc4CC[C@H]3[C@@H]1CC[C@@H]2O	1
CNC(=O)N(C)/N=C/c1ccc([N+](=O)[O-])o1	1
c1ccc([Si](C[CH2][Sn]([c]2ccccc2)([c]2ccccc2)[c]2ccccc2)(c2ccccc2)c2ccc([Si](C[CH2][Sn]([c]3ccccc3)([c]3ccccc3)[c]3ccccc3)(c3ccccc3)c3ccccc3)cc2)cc1	-1
CCCCC(Cc1ccccc1)(C(=O)O)c1ccccc1 (stereo unspecified)	1
CCOC(=O)/C(=C\c1ccc(Cl)cc1)C(C)=O	1
O=C(Nc1ccc(/C=C/c2ccc(NC(=O)c3cc(S(=O)(=O)O)c4cccnc4c3O)cc2S(=O)(=O)O)c(S(=O)(=O)O)c1)c1cc(S(=O)(=O)O)c2cccnc2c1O	1
CCCCCCCCCCCCCCOCCS(=O)(=O)O	-1

----------
Assay: NCI Yeast Anticancer Drug Screen. Data for the sgs1 mgt1 strain (AID 161);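 further: 0% = growth of cultures given vehicle only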
Settings: S. cerevisiae sgs1 mgt1 strain, at 50.0 µM, stronger effect = higher value
Compounds without any hit were thinned out: in the full panel of roughly 79,000, 15% have a hit. The source made the active and inactive calls. Cut-off read from the data, not from the text of the source: active = growth inhibition above about 70%; inactive = the rest.
Parameter: growth inhibition. Scope: all listed entries.

compound	growth inhibition
CC(=O)N[C@H]1CCC2[C@@H]3CCC4=CC(=O)NCC[C@]4(C)C3CC[C@@]21C (stereo partly specified)	56.4% (inactive)
O=C(CNC(=O)Nc1ccc(NC(=O)NCC(=O)Nc2ccc(C3=NCCN3)cc2)cc1)Nc1ccc(C2=NCCN2)cc1	98.8% (active)
COc1cc(O)c2c(c1)C(O)C(O)CC1OC1C(=O)/C=C/CC(C)OC2=O (stereo unspecified)	93.1% (active)
COC(=O)C1=C(NC(=O)Nc2ccc(Cl)cc2)OC(C)(C)C1c1ccc(Cl)cc1 (stereo unspecified)	97.1% (active)
CN(C)Cc1ccccc1C(=O)C(=O)c1ccccc1CN(C)C	-6.5% (inactive)
CCCCCN(CCCCC)CC(C)(C)C(O)c1ccc(OC)c2ccccc12 (stereo unspecified)	52.5% (inactive)
O=C(N/C(=C\c1ccc(Cl)cc1)c1nc2ccccc2[nH]1)c1ccccc1	96.8% (active)
O=C(O)C1C(C(=O)Nc2ccc3c(c2)Cc2ccccc2-3)C2(Cl)C(Cl)=C(Cl)C1(Cl)C2(Cl)Cl (stereo unspecified)	98.5% (active)
CCC(CO)Nc1nc2ccc(Br)cc2c2ccccc12 (stereo unspecified)	86% (active)
O=C(O)/C=C/C(=O)c1ccc(O)cc1	94.6% (active)
O=C(c1c(F)c(F)c(F)c(F)c1F)n1c(=S)n(C(=O)c2c(F)c(F)c(F)c(F)c2F)c2ccccc21	62.3% (inactive)
